Test system: Candida albicans ATCC90028
experiment_notes: Radial diffusion assay (RDA), C. albicans
Type: cell-based
Design: unit not given here
applied_conditions: Table 1c; peptide 100 μM
substances and their reported RDA Mean, C. albicans
Lab note: jot the number down without any unit.

Past entries and their recorded results:
GKRKKKGKGLGKKRDPCLRKYKWWW [GKR-22-WWW] = 5.55
PKR-21: growth factor derived peptide, untagged parent of PKR21WWW; sequence not printed (PKRKKKGGKNGKNRRNRKKKN; listed as Homo sapiens) = 4.59
GKR-22: growth factor derived peptide, untagged parent of GKR22WWW; sequence not printed (GKRKKKGKGLGKKRDPCLRKYK; listed as Homo sapiens) = 3.16

API: the following record is the query input.
// query RDA Mean, C. albicans value for entry PKRKKKGGKNGKNRRNRKKKNWWW [PKR-21-WWW]
6.97
